Recorded values, source ChEMBL document CHEMBL4622831.

The following molecules are listed with their measured IC50 values.
- Measured target: Dipeptidyl peptidase 4 (Homo sapiens)
Quantity kind: IC50 (nM)

INSERT INTO assay_data (molecule, u, recorded_result) VALUES
  ('N#C[C@@H]1CCCN1C(=O)[C@@H](N)Cc1ccc(-c2cn(C3CC3)nn2)cc1', 'nM', 247),
  ('N[C@@H]1CN(c2ncc(Oc3c[nH]nc3C3=CCC(F)(F)CC3)cn2)C[C@@H]1c1cc(F)c(F)cc1F', 'nM', 6),
  ('CC#CCn1c(N2CCC[C@H](N)C2)cc(=O)n(Cc2nc(C)c3cc(C)ccc3n2)c1=O', 'nM', 5.78),
  ('O=[N+]([O-])c1cccc(/C=N/N2C(c3ccccc3)=Nc3ccc(I)cc3C2NC2NC=CS2)c1 (stereo not given)', 'nM', 0.76),
  ('CCOC(=O)c1c(C(C)C)cc(C(C)C)c(C(=O)OCC)c1-c1cc2ccc(-c3ccc4c(C)cccc4c3)cc2[nH]1', 'nM', 2.72);

----------
- Test name: Inhibition of baker's yeast alpha-glucosidase using p-nitrophenyl-alpha-D-glucopyranoside as substrate preincubated for 5 mins followed by substrate addition measured after 5 mins
- Set-up: species or system Saccharomyces cerevisiae
Quantity kind: IC50 (nM)

INSERT INTO results (smiles_string, recorded_result) VALUES
  ('O=C(N/N=C/c1cccc(O)c1O)c1cc2ccccc2oc1=O', 1100);

----------
- Test name: Inhibition of Saccharomyces cerevisiae alpha-glucosidase using p-Nitrophenyl-alpha-D-glucopyranoside as substrate preincubated for 15 mins followed by substrate addition measured after 30 mins
pIC50: −log10 of the molar value.
Quantity kind: pIC50

INSERT INTO measurements (smiles_string, recorded_result) VALUES
  ('Oc1ccc(Br)cc1-c1nc2cc(Cl)ccc2s1', 4.66),
  ('COc1ccc(O)c(-c2nc3cc(Cl)ccc3s2)c1', '4.59 to 4.64'),
  ('Clc1ccc2sc(-c3c[nH]c4ccccc34)nc2c1', '4.59 to 4.64');

----------
- Measured target: Dipeptidyl peptidase 4 (Homo sapiens, UniProt P27487)
- Sequence (P27487 whole entry): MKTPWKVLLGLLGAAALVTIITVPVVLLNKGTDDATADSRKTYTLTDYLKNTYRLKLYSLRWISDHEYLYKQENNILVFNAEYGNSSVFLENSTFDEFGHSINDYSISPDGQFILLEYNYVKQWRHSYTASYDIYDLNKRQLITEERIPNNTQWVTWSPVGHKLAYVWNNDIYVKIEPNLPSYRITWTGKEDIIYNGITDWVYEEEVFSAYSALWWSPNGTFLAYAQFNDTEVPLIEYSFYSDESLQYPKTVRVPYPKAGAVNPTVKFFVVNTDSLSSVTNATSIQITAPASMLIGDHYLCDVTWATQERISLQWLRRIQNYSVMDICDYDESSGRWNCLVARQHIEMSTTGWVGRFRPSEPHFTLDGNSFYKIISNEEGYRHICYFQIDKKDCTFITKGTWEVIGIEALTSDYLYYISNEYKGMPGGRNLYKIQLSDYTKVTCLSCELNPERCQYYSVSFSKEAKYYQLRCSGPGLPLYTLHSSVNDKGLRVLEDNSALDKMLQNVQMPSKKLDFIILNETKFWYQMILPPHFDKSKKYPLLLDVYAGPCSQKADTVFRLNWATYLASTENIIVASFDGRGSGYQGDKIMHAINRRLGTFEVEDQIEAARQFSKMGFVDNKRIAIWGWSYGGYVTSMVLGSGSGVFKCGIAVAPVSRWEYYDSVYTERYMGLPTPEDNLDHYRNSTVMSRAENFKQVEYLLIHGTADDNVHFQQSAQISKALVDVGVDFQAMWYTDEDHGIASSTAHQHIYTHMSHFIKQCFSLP
pEC50: −log10 of the molar value.
Quantity kind: pEC50

INSERT INTO assay_data (compound, recorded_result) VALUES
  ('CC#CC(CC(=O)O)c1ccc(OCc2cccc(CN3CCC4N=C(C5CC5)OC4C3)c2)cc1 (stereo unspecified)', 8.92);

----------
- Test name: Inhibition of Saccharomyces cerevisiae alpha-glucosidase using p-nitrophenyl-alpha-D-glucopyranoside as substrate preincubated for 10 mins followed by substrate addition measured after 20 mins
Quantity kind: IC50 (µM)

INSERT INTO results (smiles_string, recorded_result) VALUES
  ('Brc1ccc(-n2c(-c3cn(-c4ccccc4)nc3-c3ccccc3)nc(-c3ccccc3)c2-c2ccccc2)cc1', 25.2),
  ('O=[N+]([O-])c1cccc(-c2nn(-c3ccccc3)cc2-c2nc(-c3ccccc3)c(-c3ccccc3)n2-c2ccc(Br)cc2)c1', 33.6);

----------
- Measured target: Glucose-dependent insulinotropic receptor (Homo sapiens, UniProt Q8TDV5)
- Sequence (Q8TDV5 whole entry): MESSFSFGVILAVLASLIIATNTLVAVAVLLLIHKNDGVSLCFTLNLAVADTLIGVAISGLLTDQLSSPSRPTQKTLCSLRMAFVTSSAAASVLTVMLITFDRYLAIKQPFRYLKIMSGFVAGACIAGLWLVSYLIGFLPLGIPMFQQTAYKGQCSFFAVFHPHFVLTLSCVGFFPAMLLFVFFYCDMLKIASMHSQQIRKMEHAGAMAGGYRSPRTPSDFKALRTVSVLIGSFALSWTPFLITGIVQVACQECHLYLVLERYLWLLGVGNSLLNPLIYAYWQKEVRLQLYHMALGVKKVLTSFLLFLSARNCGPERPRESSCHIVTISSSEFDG
- Test name: Agonist activity at human GPR119
Quantity kind: EC50 (nM)

INSERT INTO results (compound, measured_target, quantity_kind, recorded_result) VALUES
  ('CC(C)(C)OC(=O)N1C2CCC1CC(Nc1nc(Nc3ccc(S(C)(=O)=O)cc3F)nc3c1CCCC3)C2 (stereo unspecified)', 'Glucose-dependent insulinotropic receptor (Homo sapiens, UniProt Q8TDV5)', 'EC50', 270);

----------
- Test name: Inhibition of Saccharomyces cerevisiae alpha-glucosidase using p-nitrophenyl glucopyranoside as substrate preincubated for 10 mins followed by substrate addition measured after 20 mins by spectrophotometric analysis
Quantity kind: IC50 (µM)

INSERT INTO measurements (compound, recorded_result) VALUES
  ('COc1ccc2c(c1)C(SCC(=O)NCc1ccc(C)cc1)c1ccc(Cl)cc1C2 (stereo unspecified)', 80);

----------
- Measured target: UniProt P18031
- Test name: Inhibition of PTP1B (unknown origin) by fluorometric assay
pIC50: −log10 of the molar value.
Quantity kind: pIC50

INSERT INTO measurements (smiles_string, recorded_result) VALUES
  ('Cc1cc(C)n(-c2ccc(S(=O)(=O)Nc3ncccn3)cc2)c(=O)c1C#N', 6.06),
  ('N=c1oc2ccccc2cc1C(=O)Nc1ccc(S(=O)(=O)Nc2ncccn2)cc1', 5.48);

----------
- Measured target: Peroxisome proliferator-activated receptor gamma (Homo sapiens, UniProt P37231)
- Sequence (P37231 whole entry): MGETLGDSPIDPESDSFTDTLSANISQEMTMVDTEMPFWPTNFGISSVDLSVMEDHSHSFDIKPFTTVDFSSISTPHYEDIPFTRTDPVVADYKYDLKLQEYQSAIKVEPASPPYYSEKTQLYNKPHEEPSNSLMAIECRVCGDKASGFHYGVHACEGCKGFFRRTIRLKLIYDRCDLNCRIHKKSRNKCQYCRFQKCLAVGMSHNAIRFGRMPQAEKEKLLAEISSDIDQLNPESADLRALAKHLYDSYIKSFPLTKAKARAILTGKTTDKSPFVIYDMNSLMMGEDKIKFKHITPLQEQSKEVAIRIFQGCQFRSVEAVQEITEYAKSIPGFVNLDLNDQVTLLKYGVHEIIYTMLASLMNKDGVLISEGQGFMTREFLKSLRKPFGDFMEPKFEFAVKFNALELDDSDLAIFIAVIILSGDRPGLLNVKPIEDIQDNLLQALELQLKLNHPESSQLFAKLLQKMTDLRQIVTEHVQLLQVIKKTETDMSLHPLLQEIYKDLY
Quantity kind: EC50

INSERT INTO results (smiles_string, quantity_kind, recorded_result) VALUES
  ('COc1cc(CCC[C@H]2OC(=O)NC2=O)ccc1OCc1nc(-c2ccco2)oc1C', 'EC50', '8.87 nM');

----------
The following molecules are listed with their measured pIC50 values.
- Test name: Inhibition of alpha-glucosidase (unknown origin) using p-nitrophenyl-alpha-d-glucopyranoside as substrate preincubated for 5 mins followed by substrate addition measured after 5 mins by spectrophotometric analysis
- Parameters: species or system Homo sapiens
pIC50: −log10 of the molar value.
Quantity kind: pIC50

INSERT INTO measurements (smiles_string, recorded_result) VALUES
  ('Nc1nnc(-c2ccc(O)cc2)s1', 5.64),
  ('Oc1ccc(/C=N/c2nnc(-c3ccc(Cl)cc3)s2)cc1', 5.64);

----------
- Measured target: Dipeptidyl peptidase 4 (Homo sapiens)
- Test name: Inhibition of recombinant human DPP4 using Gly-Pro-AMC as substrate preincubated for 10 mins followed by substrate addition by florescence assay
pIC50: −log10 of the molar value.
Quantity kind: pIC50

INSERT INTO results (smiles_string, quantity_kind, recorded_result) VALUES
  ('Cc1ccc(NS(=O)(=O)c2ccc3c(c2)CCCC3)cc1', 'pIC50', 8.55);

----------
- Test name: Inhibition of alpha-glucosidase (unknown origin) using p-NPG as substrate preincubated for 5 mins followed by substrate addition measured after 30 mins
- Design: species or system Homo sapiens
The following compounds are listed with their measured IC50 values.
Quantity kind: IC50 (nM)

INSERT INTO assay_data (smiles_string, quantity_kind, recorded_result) VALUES
  ('Cc1cs/c(=N\C(=O)c2cccc3ccccc23)n1-c1cc(Cl)c(Cl)cc1Cl', 'IC50', 150),
  ('Cc1ccccc1C(=O)/N=c1\scc(C)n1-c1cc(Cl)c(Cl)cc1Cl', 'IC50', 150);

----------
- Test name: Toxicity in mouse
- Assay type: organism-based
- Reported conditions: in vivo
Quantity kind: MTD (mg/kg)

INSERT INTO results (smiles_string, u, recorded_result) VALUES
  ('N#C[C@@H]1CCCN1C(=O)CNC12CC3CC(CC(O)(C3)C1)C2', 'mg/kg', 2000);

----------
- Measured target: Sodium/glucose cotransporter 1 (Homo sapiens)
- Sequence (P13866 whole entry): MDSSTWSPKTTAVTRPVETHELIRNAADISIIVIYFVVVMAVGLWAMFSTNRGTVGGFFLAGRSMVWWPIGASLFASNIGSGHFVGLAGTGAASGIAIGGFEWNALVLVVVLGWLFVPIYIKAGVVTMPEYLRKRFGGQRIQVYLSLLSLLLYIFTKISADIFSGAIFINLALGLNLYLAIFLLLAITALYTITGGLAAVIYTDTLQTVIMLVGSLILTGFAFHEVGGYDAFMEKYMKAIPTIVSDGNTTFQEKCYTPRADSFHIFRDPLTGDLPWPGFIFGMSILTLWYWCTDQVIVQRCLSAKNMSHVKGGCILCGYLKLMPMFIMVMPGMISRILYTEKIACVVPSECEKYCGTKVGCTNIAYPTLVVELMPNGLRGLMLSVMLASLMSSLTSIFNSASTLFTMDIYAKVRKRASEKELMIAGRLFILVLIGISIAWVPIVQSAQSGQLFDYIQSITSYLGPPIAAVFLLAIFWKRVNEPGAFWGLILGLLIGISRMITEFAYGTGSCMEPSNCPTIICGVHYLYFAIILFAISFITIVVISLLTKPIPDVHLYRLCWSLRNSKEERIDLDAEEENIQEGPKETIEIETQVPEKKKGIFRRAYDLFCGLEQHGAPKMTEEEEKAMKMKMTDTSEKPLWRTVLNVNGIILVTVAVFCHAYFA
- Test name: Inhibition of human SGLT1
Quantity kind: EC50 (nM)

INSERT INTO assay_data (smiles_string, measured_target, recorded_result) VALUES
  ('ONC[C@H]1C[C@@H](n2cc(Cc3ccc(C4CC4)cc3)c3c(Cl)cccc32)[C@H](O)[C@@H](O)[C@@H]1O', 'Sodium/glucose cotransporter 1 (Homo sapiens)', 37);

----------
- Measured target: Tyrosine-protein phosphatase non-receptor type 1 (Homo sapiens, UniProt P18031)
- Sequence (P18031 whole entry): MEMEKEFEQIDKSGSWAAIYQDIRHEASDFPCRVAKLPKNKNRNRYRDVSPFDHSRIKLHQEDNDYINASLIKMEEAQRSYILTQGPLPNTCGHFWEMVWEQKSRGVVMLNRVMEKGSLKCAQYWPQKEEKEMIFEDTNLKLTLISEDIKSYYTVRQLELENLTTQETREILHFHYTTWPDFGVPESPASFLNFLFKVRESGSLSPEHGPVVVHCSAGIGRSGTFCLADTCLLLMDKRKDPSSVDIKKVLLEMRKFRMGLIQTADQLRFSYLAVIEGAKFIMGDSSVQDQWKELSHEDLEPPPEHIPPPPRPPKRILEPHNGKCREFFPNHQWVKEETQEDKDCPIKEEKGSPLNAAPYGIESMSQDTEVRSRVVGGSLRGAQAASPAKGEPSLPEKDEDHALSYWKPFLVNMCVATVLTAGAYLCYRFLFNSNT
- Test name: Inhibition of PTP1B (unknown origin)
Quantity kind: IC50 (µM)

INSERT INTO measurements (compound, quantity_kind, u, recorded_result) VALUES
  ('O=C(CSc1nc2cc(Cl)ccc2s1)Nc1cccc(-c2nnn[nH]2)c1', 'IC50', 'µM', 1.88),
  ('O=C1/C(=C/c2ccc(-c3ccccc3)cc2)NC(=S)C1c1ccccc1 (stereo unspecified)', 'IC50', 'µM', 2.9),
  ('CC(C)(C)OC(=O)N[C@@H](Cc1ccc(OCc2nc3ccccc3[nH]2)cc1)C(=O)O', 'IC50', 'µM', 43.6),
  ('CC(C)(C)OC(=O)N[C@@H](Cc1ccc(OCc2ccc(-c3ccccc3C#N)cc2)cc1)C(=O)O', 'IC50', 'µM', 44),
  ('COc1cc(CC2SC(=O)NC2=O)ccc1OS(C)(=O)=O (stereo unspecified)', 'IC50', 'µM', 7.31),
  ('COc1cc(CC2SC(=O)NC2=O)ccc1OS(=O)(=O)c1ccccc1 (stereo unspecified)', 'IC50', 'µM', 8.73);

----------
- Measured target: Dipeptidyl peptidase 4 (Homo sapiens, UniProt P27487)
- Test name: Inhibition of recombinant human DPP4 using Gly-Pro-AMC as substrate preincubated for 10 mins followed by substrate addition
Quantity kind: IC50 (nM)

INSERT INTO assay_data (smiles_string, measured_target, recorded_result) VALUES
  ('CC#CCn1c(N2CCC[C@@H](N)C2)cc(=O)n(Cc2cn(CC(=O)N(C)C)nn2)c1=O', 'Dipeptidyl peptidase 4 (Homo sapiens, UniProt P27487)', 28.6);

----------
- Measured target: Free fatty acid receptor 4 (Homo sapiens)
- Sequence (Q5NUL3 whole entry): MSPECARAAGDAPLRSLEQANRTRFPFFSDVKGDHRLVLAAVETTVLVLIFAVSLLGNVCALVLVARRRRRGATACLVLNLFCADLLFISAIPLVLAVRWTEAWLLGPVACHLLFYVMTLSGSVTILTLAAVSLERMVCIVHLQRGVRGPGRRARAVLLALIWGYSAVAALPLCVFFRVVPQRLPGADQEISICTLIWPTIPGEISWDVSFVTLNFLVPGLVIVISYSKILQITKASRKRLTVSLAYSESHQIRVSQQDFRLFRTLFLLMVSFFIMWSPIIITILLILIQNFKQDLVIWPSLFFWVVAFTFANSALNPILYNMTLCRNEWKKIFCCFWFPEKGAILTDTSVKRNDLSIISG
- Test name: Agonist activity at GPR120 (unknown origin)
The following compounds are listed with their measured EC50 values.
Quantity kind: EC50

INSERT INTO results (smiles_string, recorded_result) VALUES
  ('COc1ccc(F)c(-c2ncc(COc3ccc([C@@H](CC(=O)O)C4CC4)cc3)nc2OCCC(F)(F)F)c1', '6 nM'),
  ('O=C(O)CCc1ccc(OCc2cccc(SCC3CC3)n2)c(Cl)c1', '6 nM'),
  ('OCCCc1cc(F)c(OCc2c(C(F)(F)F)ccn2-c2ccc(Br)cc2)c(F)c1', '61 nM'),
  ('CCc1cc2cc(C(F)(F)F)cc(COc3ccc(CCC(=O)O)c(C)c3C)c2o1', '110 nM'),
  ('O=C(O)CCCc1ccc(OCC2=C(c3ccc(C4CC4)cc3)CCCC2)cc1', '50 to 500 nM');
